Measured values drawn from paper PMC3005596 for this set.

Answer each item with its documented Kd.
# Measurement Target: Dicer;TRBPRBD3 (human;human, UniProt Q9UPY3;Q15633 1-1922;293-366, |)
# Sequence (Q9UPY3 whole entry, chain 1 of 2): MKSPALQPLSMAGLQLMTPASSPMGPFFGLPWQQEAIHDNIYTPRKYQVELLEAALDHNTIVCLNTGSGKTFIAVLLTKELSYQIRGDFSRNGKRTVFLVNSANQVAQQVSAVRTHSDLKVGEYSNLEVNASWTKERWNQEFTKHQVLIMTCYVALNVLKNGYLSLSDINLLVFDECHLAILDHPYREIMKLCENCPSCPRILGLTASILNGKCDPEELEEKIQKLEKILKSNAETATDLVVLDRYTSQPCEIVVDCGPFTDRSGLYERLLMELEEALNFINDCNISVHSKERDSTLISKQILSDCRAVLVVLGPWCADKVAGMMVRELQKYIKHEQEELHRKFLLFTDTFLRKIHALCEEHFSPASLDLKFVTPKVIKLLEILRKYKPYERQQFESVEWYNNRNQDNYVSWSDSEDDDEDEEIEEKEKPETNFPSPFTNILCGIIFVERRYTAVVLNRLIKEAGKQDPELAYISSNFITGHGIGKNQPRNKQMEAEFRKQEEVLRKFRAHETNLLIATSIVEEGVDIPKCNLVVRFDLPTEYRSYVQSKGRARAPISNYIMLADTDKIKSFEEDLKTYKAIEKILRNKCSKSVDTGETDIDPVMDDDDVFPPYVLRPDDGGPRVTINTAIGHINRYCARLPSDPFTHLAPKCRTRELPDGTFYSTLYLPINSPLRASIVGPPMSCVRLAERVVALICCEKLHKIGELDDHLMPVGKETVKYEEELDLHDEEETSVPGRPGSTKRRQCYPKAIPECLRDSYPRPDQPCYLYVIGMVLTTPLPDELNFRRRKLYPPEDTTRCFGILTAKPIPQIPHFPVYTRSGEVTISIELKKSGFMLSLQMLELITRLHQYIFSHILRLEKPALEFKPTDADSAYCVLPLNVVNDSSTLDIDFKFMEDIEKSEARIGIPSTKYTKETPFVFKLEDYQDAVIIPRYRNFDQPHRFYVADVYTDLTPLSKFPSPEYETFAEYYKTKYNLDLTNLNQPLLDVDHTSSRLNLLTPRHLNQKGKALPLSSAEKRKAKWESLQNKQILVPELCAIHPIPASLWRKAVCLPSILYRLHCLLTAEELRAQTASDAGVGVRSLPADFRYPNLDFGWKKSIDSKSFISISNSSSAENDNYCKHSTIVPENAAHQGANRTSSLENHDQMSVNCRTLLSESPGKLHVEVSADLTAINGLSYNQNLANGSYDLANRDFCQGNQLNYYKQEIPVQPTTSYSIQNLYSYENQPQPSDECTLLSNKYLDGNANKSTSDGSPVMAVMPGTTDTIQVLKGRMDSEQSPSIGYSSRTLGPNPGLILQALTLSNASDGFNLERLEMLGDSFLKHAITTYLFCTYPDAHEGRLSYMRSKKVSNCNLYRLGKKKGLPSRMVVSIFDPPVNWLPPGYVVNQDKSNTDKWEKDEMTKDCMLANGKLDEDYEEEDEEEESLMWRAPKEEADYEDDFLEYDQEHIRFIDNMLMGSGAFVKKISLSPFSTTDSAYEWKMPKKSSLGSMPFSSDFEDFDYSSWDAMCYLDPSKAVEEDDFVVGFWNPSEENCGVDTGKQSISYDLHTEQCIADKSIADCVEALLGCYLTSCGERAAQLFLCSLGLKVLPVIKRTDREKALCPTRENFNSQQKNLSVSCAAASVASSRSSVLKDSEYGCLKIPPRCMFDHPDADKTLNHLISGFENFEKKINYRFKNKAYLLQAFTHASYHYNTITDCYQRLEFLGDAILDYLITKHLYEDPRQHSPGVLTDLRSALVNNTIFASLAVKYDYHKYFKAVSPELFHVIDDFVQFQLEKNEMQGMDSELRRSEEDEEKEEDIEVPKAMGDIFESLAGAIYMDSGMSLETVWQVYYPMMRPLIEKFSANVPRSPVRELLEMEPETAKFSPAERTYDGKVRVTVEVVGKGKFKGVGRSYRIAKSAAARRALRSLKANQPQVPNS
# Sequence (Q15633 293-366, chain 2 of 2): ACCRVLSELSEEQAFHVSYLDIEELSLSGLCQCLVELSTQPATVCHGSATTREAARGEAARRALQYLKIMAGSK
# Assay Procedure: filter binding
Answers are plain numbers, in nM.

Binder	Unit Label	Kd
pre-let-7a (structured_RNA) RNA: UGAGGUAGUAGGUUGUAUAGUUUUAGGGUCACACCCACCACUGGGAGAUAACUAUACAAUCUACUGUCUUACC	nM	1.3

Proceeding to the next binder to report its Kd.
Recorded Kd of 35-bp duplex (pre-siRNA) (dsRNA) RNA 1: UGAGGUAGUAGGUUGUAUAGUUUGAAAGUUCACGAUU RNA 2: UCGUGAACUUUCAAACUAUACAACCUACUACCUCAAA , please.
3
